I'd be grateful if you could share measured IC50 for these entries.
Tested on: MDA-MB-231
ASSAY_NAME: Cytotoxicity against human MDA-MB-231 cells
Format: functional, cell-based
CONDITION_DETAILS: read-out: IC50
Kindly provide the numeric value in nM only, without the unit symbol.

Task: Any idea what IC50 was measured for `COc1ccc(-c2[nH]c3cc(OC)c(OC)cc3c2C=O)cc1` ?
Output: 220

Task: Queued: CCC(C)c1ccc2[nH]c(-c3ccc(OC)cc3)c(C=O)c2c1 (stereo not drawn)
Output: 72

Task: Queued: `COc1ccc2c(C=O)c(-c3ccccc3)[nH]c2c1`
Output: 240
